Quick reference: GI50 of the listed items.
# Test system: SK-MEL-28
# Assay Notes: NCI tumour cell line growth inhibition, 48 h
Activity calls are given as the source filed them. Cut-off read from the data, not from the text of the source: active = GI50 up to about 1.1 µM and inactive = higher.

These recorded examples may help you get a feel for the data.
| Compound | GI50 |
| --- | --- |
| c1ccc2c(c1)nc1n2CCCn2ccnc2-1 | > 100 µM (inactive) |
| C=CCN1C(=O)C/C(=C2/CCC(=O)N2CC=C)C1=O | > 100 µM (inactive) |
| N#Cc1c(=O)c2ccccc2n2ccccc12 | > 100 µM (inactive) |
| CC(C)(C)c1cc(OCc2nn3c(Cc4ccccc4)nnc3s2)c(Cl)cc1OCc1nn2c(Cc3ccccc3)nnc2s1 | 36.2 µM (inactive) |
| CCCCCCCCCCCC(=O)OCC1OC(n2cc(F)c(=O)[nH]c2=O)C(NC(=O)OCc2ccccc2)C(O)C1O (stereo not drawn) | 19.1 µM (inactive) |

Input: Can you look up the measured GI50 of CCC1C(c2cccc(OC)c2O)c2cc3c(cc2OC1N1CCCC1)OCO3 (stereo not drawn) for me?
Output: 16.3 µM (inactive)

Input: Given the compound `OC1(c2cc3ccccc3s2)CCCCC1` , what is its reported GI50?
Output: 81.3 µM (inactive)

Input: Which measured GI50 value corresponds to O=c1[nH]c(=O)n(C2CC(O)C(CO)O2)c2nc3cc4ccccc4cc3nc12 (stereo not drawn) ?
Output: > 100 µM (inactive)

Input: Which GI50 reading was recorded for the compound CC(=O)NCC1OC2COC(c3ccccc3)OC2C2N=C(c3ccccc3)OC12 (stereo not drawn) ?
Output: 59.6 µM (inactive)

Input: Any idea what its GI50 is? The compound is `Br/C(=N\N=c1/nn[nH][nH]1)c1ccncc1`
Output: > 100 µM (inactive)

Input: Consider the compound shown here: `c1ccc(SC2(Sc3ccccc3)CCCC2)cc1` What is its recorded GI50?
Output: > 100 µM (inactive)

Input: Could you share which GI50 value was measured for `c1ccc2c(c1)Cn1c-2nc2ccccc21` ?
Output: > 100 µM (inactive)

Input: GI50 lookup needed for `COc1cc(CSc2ccc(O)cc2)cc(O)c1O` , thanks.
Output: 46.2 µM (inactive)

====

# Test system: MOLT-4
# Assay Notes: NCI tumour cell line growth inhibition, 48 h
Activity calls are given as the source filed them. No stated cut-off is given here; in the data, active = GI50 up to about 1.1 µM and inactive = higher.
Test Readout: GI50

| Compound | Test System | GI50 |
| --- | --- | --- |
| Cc1ccc(Cl)c2c(=O)c3ccc(N)cc3sc12 | MOLT-4 | 11.7 µM (inactive) |

Input: What does the data say about its GI50? Entry: `CCn1c(=O)c2c3ccc(OC(C)=O)cc3[nH]c2c2ccc(OC(C)=O)cc21`
Output: 17.6 µM (inactive)

Input: Need GI50, item `Cc1cccc(/C=N/NC(=S)N2CCCC2)n1`
Output: 0.0687 µM (active)

Input: Sample `O=C(/C=C/c1ccc(-c2ccccc2)cc1)c1ccccc1` — what was its GI50?
Output: 46.9 µM (inactive)

Input: GI50 for CSc1nc2c(c(N(C)C)n1)C(O)n1c(nc3ccccc31)S2 (stereo unspecified) ?
Output: > 100 µM (inactive)

Input: Can you look up the measured GI50 of `CCOC(=O)/C(C(=O)c1ccccc1)=C1\N[C@H](C(=O)OCC)CS1` for me?
Output: > 100 µM (inactive)

====

# Tested on: CCRF-CEM
# Assay Notes: NCI tumour cell line growth inhibition, 48 h
Calls of active or inactive are those of the source. No stated cut-off is given here; in the data, active = GI50 up to about 1.1 µM and inactive = higher.
Write down the outcome that applies. Available outcomes: active, inactive

Answered examples (5):
| Compound | Answer Label |
| --- | --- |
| COc1cc(CSc2ccc(O)cc2)cc(O)c1O | inactive |
| CCC(C)C(NC(=O)c1cccc2c(=O)c3ccccc3[nH]c12)C(=O)O (centres undefined) | inactive |
| O=C1CC(c2cccc(F)c2)Nc2cc3c(cc21)OCO3 (centres undefined) | active |
| CC(=O)NCC1OC2COC(c3ccccc3)OC2C2N=C(c3ccccc3)OC12 (centres undefined) | inactive |
| O=c1n(-c2ccc(Cl)c(Cl)c2)c(=O)n(-c2ccc(Cl)c(Cl)c2)c(=O)n1-c1ccc(Cl)c(Cl)c1 | inactive |

Input: Any idea what this test logged for `COc1cccc2[s+]snc12` ?
Output: inactive

Input: # fetch the recorded call for CCCCCCCCOC(=O)C12Oc3ccc(-c4ccc5c(c4O)C(=O)C4=C(O)CC(C)C(O)C4(C(=O)OCCCCCCCC)O5)c(O)c3C(=O)C1=C(O)CC(C)C2O (centres undefined) here
Output: inactive

Input: Please indicate how the test categorized `O=C1C2=C(SCCS2)C(=O)c2ccccc21` .
Output: active

Input: Recorded test call requested for `OC1(c2cc3ccccc3s2)CCCCC1`
Output: inactive

Input: For `COc1cc2c(cc1C[C@H]1[C@@H]3C[C@H]4c5c(c6ccccc6n5C)C[C@@H]([C@@H]3CO[C@]1(C)OC(C)=O)N4C)c1c(n2C)C2C[C@H]3C(C(C)=O)=COC[C@H]3[C@H](C1)N2C` , which call appears in the assay record?
Output: inactive

Input: Could you kindly confirm the outcome this assay logged for CC1(c2sccc2Cl)CC(c2sccc2Cl)=C(C#N)C(=C(C#N)C#N)N1 (centres undefined) ?
Output: inactive

Input: Any idea what this test logged for CCCCCCCCCCCC(=O)OCC1OC(n2cc(F)c(=O)[nH]c2=O)C(NC(=O)OCc2ccccc2)C(O)C1O (centres undefined) ?
Output: inactive

Input: What did this assay record as the result for `COCC(=O)CP(=O)(OC)OC` ?
Output: inactive

Input: I'd appreciate the recorded outcome for CC(NC1=NCCO1)c1ccccc1Cl (centres undefined) from this test.
Output: inactive

Input: What was the test verdict on `O=C(N/N=C/c1cc(Br)ccc1O)N/N=C/c1cc(Br)ccc1O` ?
Output: inactive

Input: Name the outcome recorded for `COC(=O)CNC(=O)c1cc(C)cc2c1Oc1c(cc(C)cc1C(=O)NCC(=O)OC)S2` in the assay.
Output: inactive

Input: Each compound tested received a call. Report the one for `CSC1=C(C)S/C(=C\c2ccc(/C=C3\SC(C)=C(SC)S3)cc2)S1` .
Output: inactive

Input: Could you please tell me the result logged for `Cc1ccc2c(=O)cc(-c3cccc(F)c3)[nH]c2n1` in this assay?
Output: active

Input: Kindly provide the recorded test outcome for the following compound: `CCOC(=O)c1c(SC(=O)/C=C/c2ccccc2)n(-c2ccccc2)c(=S)n(-c2ccccc2)c1=O`
Output: inactive

Input: // outcome(item) with item = `CCCN1C(=O)/C(=C\c2ccc(OC)c(OC)c2)S/C1=N\c1ccccc1`
Output: inactive

Input: Query: recorded result category for `c1ccc(CNc2nncc3[nH]cnc23)cc1` in this test
Output: inactive

Input: Assay outcome for CCOC(=O)C1=C(C)N(c2ccc(OC)cc2)C2(O)C=CC(O)=C3C(=O)c4ccccc4C(=O)C312 (centres undefined) : what was it?
Output: inactive

Input: Can you look up the reported call for `COc1cc2oc3ccccc3c(=O)c2cc1CSc1ccccc1N` for me?
Output: inactive

Input: What did this assay record as the result for `Cc1ccc2c(O)cc(-c3ccc(C)s3)nc2n1` ?
Output: active

====

Recorded GI50 by entry
# Tested on: SK-MEL-2
# Assay Notes: NCI tumour cell line growth inhibition, 48 h
Calls of active or inactive are those of the source. No stated cut-off is given here; in the data, active = GI50 up to about 1.1 µM and inactive = higher.

Solved cases (3 shown):
| Compound | Test Readout | Result |
| --- | --- | --- |
| CC1=CC(=O)NP(=O)(Oc2ccc(Cl)cc2)N1 (centres undefined) | GI50 | > 100 µM (inactive) |
| C=CCC12CCC(=O)C=C1CCC1(C2)OCCO1 (centres undefined) | GI50 | > 100 µM (inactive) |
| CCOC(=O)CCC(NC(=O)c1ccc(NC(OC)c2nc3cc(C(F)(F)F)ccc3nc2-c2ccccc2)cc1)C(=O)OCC (centres undefined) | GI50 | 17.3 µM (inactive) |

Input: Look at this compound and give its reported GI50. `O=C(Nc1nc(C23CC4CC(CC(C4)C2)C3)cs1)c1cc2cc(Br)cc(Br)c2oc1=O`
Output: 51.5 µM (inactive)

Input: Need GI50, item `c1ccc(SC2(Sc3ccccc3)CCCC2)cc1`
Output: > 100 µM (inactive)

Input: Request the reported GI50 associated with C=C1C(=O)O[C@@H]2C[C@]3(C)CC[C@]4(C)[C@H](CC[C@@H]5[C@@]6(C)CCC(=O)C(C)(C)[C@@H]6CC[C@]54C)[C@H]3[C@H]12 [OCHRACEOLIDE A]
Output: 22.4 µM (inactive)

Input: Endpoint output: GI50 of `CCOC(=O)c1sc(=S)n(-c2ccc(Cl)cc2)c1-n1cc(-c2ccccc2)c(C#N)c1N` . Value?
Output: 20.4 µM (inactive)

Input: What value of measured GI50 is listed for CC(C)=NOC(=O)CNC(=O)C(Cc1ccccc1)NC(=O)C(C)NC(=O)OC(C)(C)C (centres undefined) ?
Output: > 100 µM (inactive)

Input: Which GI50 reading was recorded for the compound `O=C(NC12CC3CC(CC(C3)C1)C2)n1cnc2cncnc21` ?
Output: 18.2 µM (inactive)
